# protocolDescription: Pharmacokinetics after administration of rac-ornidazole in a formulation
# Type: in vivo, human
# testSettings: human, in vivo; after single administration of rac-ornidazole in a formulation
measuredProperty: Cmax

1) Cc1ncc([N+](=O)[O-])n1CC(O)CCl (racemic) [(rac)-ornidazole, reference compound]	9000 to 31500 ng/mL

----------
# protocolDescription: Pharmacokinetics after administration of rac-ornidazole in a formulation
# Type: in vivo, human
# testSettings: human, in vivo; after a single administration of rac-ornidazole in a formulation; read-out: elimination half-life (T1/2)
measuredProperty: half-life

1. Cc1ncc([N+](=O)[O-])n1CC(O)CCl (racemic) [(rac)-ornidazole, reference compound]	14 to 18 h
